- System: 171881-019-R-J1-PDC tumor spheroids, viability
- assayDetails: Anticancer human tumor 171881-019-R-J1-PDC patient-derived invasive breast carcinoma cell line growth inhibition [GQUAD]
- conditionParameters: second compound 0.316 µM; first compound 0.0316 µM; stronger effect = lower value; spheroids with HUVEC and MSC
quantity: viability, T/C (%)
Please give a number only; it is taken to be in %.

Example entries and their recorded answers appear below.
INSERT INTO measurements (compound, datavalue) VALUES
  ('CC(=O)O[C@H]1C(=O)[C@@]2(C)[C@H]([C@H](OC(=O)c3ccccc3)[C@]3(O)C[C@H](OC(=O)[C@H](O)[C@@H](NC(=O)c4ccccc4)c4ccccc4)C(C)=C1C3(C)C)[C@]1(OC(C)=O)CO[C@@H]1C[C@@H]2O + CN(C)c1ccc(Nc2c3ccc(NC(=O)CCN4CCCC4)cc3nc3cc(NC(=O)CCN4CCCC4)ccc23)cc1', 25.1),
  ('CC(=O)O[C@H]1C(=O)[C@@]2(C)[C@H]([C@H](OC(=O)c3ccccc3)[C@]3(O)C[C@H](OC(=O)[C@H](O)[C@@H](NC(=O)c4ccccc4)c4ccccc4)C(C)=C1C3(C)C)[C@]1(OC(C)=O)CO[C@@H]1C[C@@H]2O + Cc1[nH]c2ccc(F)cc2c1-c1nc2c3cccnc3c3ncccc3c2[nH]1', 50.2),
  ('O=c1[nH]cc(F)c(=O)[nH]1 + Cc1[nH]c2ccc(F)cc2c1-c1nc2c3cccnc3c3ncccc3c2[nH]1', 73.1),
  ('CC(C)(O)C1CCC(Nc2ccc3ncc(-c4cccc(C(F)(F)F)c4)n3n2)CC1 (stereo not given) + Cc1cnc(CNC(=O)c2c(=O)c3ccc(N4CCCN(C)CC4)nc3n3c2sc2ccccc23)cn1', 76.5);

Q) What does the record list as viability, T/C for Cc1cccc(N(C)C(=O)C2C(O)CCN2c2nc(C)cc(C(F)(F)F)c2C#N)c1 (stereo not given) + Cc1cnc(CNC(=O)c2c(=O)c3ccc(N4CCCN(C)CC4)nc3n3c2sc2ccccc23)cn1 ?
A) 73.5

Q) # get_value(readout='viability, T/C', item= COc1cccc2c1C(=O)c1c(O)c3c(c(O)c1C2=O)CC(O)(C(=O)CO)CC3OC1CC(N)C(O)C(C)O1 (stereo not given) + Cc1cnc(CNC(=O)c2c(=O)c3ccc(N4CCCN(C)CC4)nc3n3c2sc2ccccc23)cn1 )
A) 62.9

* * *

The entries below are paired with their reported viability, T/C.
- Test system: 171881-019-R-J1-PDC tumor spheroids, viability
- assayDetails: Anticancer human tumor 171881-019-R-J1-PDC cell line growth inhibition [GQUAD];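 further: spheroids exposed to compounds for 7 days; 100% = DMSO vehicle control viability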
- conditionParameters: second compound 1 µM; first compound 3.16 µM; stronger effect = lower value; spheroids with HUVEC and MSC
The reply should be a number in %, with the unit left off.

Known results for molecules:
INSERT INTO assay_data (molecule, quantity, datavalue) VALUES
  ('COc1cc(C2c3cc4c(cc3C(OC3OC5COC(C)OC5C(O)C3O)C3COC(=O)C23)OCO4)cc(OC)c1O (stereo not drawn) + CN(C)c1ccc(Nc2c3ccc(NC(=O)CCN4CCCC4)cc3nc3cc(NC(=O)CCN4CCCC4)ccc23)cc1', 'viability, T/C', 10.6),
  ('COc1cc(C2c3cc4c(cc3C(OC3OC5COC(C)OC5C(O)C3O)C3COC(=O)C23)OCO4)cc(OC)c1O (stereo not drawn) + Cc1cnc(CNC(=O)c2c(=O)c3ccc(N4CCCN(C)CC4)nc3n3c2sc2ccccc23)cn1', 'viability, T/C', 39.9);

Attention now shifts to the item below.
Q) I have this molecule here, CC(C)n1c(=O)n(C)c2cnc3cc(F)c(-c4ccc(OCCCN5CCCCC5)nc4)cc3c21 + Cc1[nH]c2ccc(F)cc2c1-c1nc2c3cccnc3c3ncccc3c2[nH]1 , and I need its recorded viability, T/C.
A) 43.2
